test system: Target C; assay: Splicing RT-qPCR panel, Target C canonical junction (CJ) mRNA; format: cell-based, human; details: Homo sapiens, RT-qPCR panel, canonical junction mRNA; compound concentration having 50% response in CJ decrease; read-out: Target C IC50 (decrease in CJ mRNA levels)
pIC50: −log10 of the molar value.
Some compounds, each annotated with its measured pIC50.
readout-label: pIC50

1. c1n[nH]cc1-c1ccc(-c2ccc(N3CCC4(CCNCC4)C3)nn2)c2[nH]ncc12 ... < 5.00
2. [2H]C([2H])([2H])N(c1ccc(-c2ccc(-c3cn[nH]c3)c3ncsc23)nn1)C1CC(C)(C)NC(C)(C)C1 ... 6.00 to 7.00
3. CN(c1ccc(-c2ccc(-n3cccn3)c3cn[nH]c23)nn1)C1CCNCC1 ... < 5.00
4. CN(c1ccc(-c2ccc(-c3cn[nH]c3)c3ncsc23)nn1)[C@@H]1C[C@H]2CCC[C@@H](C1)N2 ... > 7.00
5. COc1cc(-c2ccc(-c3ccc(N(C)C4CC(C)(C)NC(C)(C)C4)nn3)c3ncsc23)ccn1 ... < 5.00
6. c1nc2c(-c3cn[nH]c3)ccc(-c3ccc(N4CCC5(CC4)CNC5)nn3)c2s1 ... < 5.00
7. CN(c1ccc(-c2ccc(-c3cn[nH]c3)c3cn[nH]c23)nn1)[C@H]1C[C@]2(C)CC[C@](C)(C1)N2 ... > 7.00

---

Some compounds, each annotated with its measured IC50.
tested on: Target C; experiment: Splicing RT-qPCR panel, Target C canonical junction (CJ) mRNA; assay type: cell-based, human; settings: Homo sapiens, gene panel, CJ qPCR, protocol of Example 142; read-out: Target C IC50 (decrease in CJ mRNA levels)
readout-label: IC50

1) COc1nc(-c2ccc(OC3CC4CC(F)(F)C(C3)N4)nn2)ccc1C1C=CC(F)=C1 (centres unmarked) [Compound 971] ... 1000 to 10000 nM
2) COc1nc(-c2ccc(N(C)[C@@H]3C[C@H]4CC[C@@H](C3)N4)nn2)ccc1-c1ccnc(O)c1 [Compound 961] ... 100 to 1000 nM
3) COc1nc(-c2ccc(OC3CC(C)(C)NC(C)(C)C3)nn2)ccc1-c1cnn(C)n1 [Compound 926] ... 1000 to 10000 nM
4) COc1nc(-c2ccc(OC3CC(C)(C)NC(C)(C)C3)nc2)ccc1-n1cccn1 [Compound 991] ... > 10000 nM
5) COc1nc(-c2ccc(N(C)C3CC(C)(C)NC(C)(C)C3)nc2)ccc1-n1cccn1 [Compound 995] ... > 10000 nM
6) COc1nc(-c2ccc(OC3CC(C)(C)NC(C)(C)C3)nn2)ccc1-c1cnn(C)c1 [Compound 918] ... 100 to 1000 nM
7) CN(c1ccc(-c2ccc(-c3cn[nH]c3)c(C(F)(F)F)n2)nn1)[C@@H]1C[C@H]2CC[C@@H](C1)N2 [Compound 916] ... > 10000 nM
8) COc1nc(-c2cnc(N(C)[C@@H]3C[C@H]4CC[C@@H](C3)N4)nc2)ccc1-c1cn[nH]c1 [Compound 981] ... 1000 to 10000 nM
9) CCOc1nc(-c2ccc(OC3CC4CC(F)(F)C(C3)N4)nn2)ccc1-c1cn[nH]c1 (centres unmarked) [Compound 970] ... > 10000 nM
10) CN(c1ccc(-c2ccc(-c3cn[nH]c3)c(F)n2)nn1)[C@@H]1C[C@H]2CC[C@@H](C1)N2 [Compound 922] ... 100 to 1000 nM
11) COc1nc(-c2ccc(O[C@@H]3C[C@H]4CC[C@@H](C3)N4)nn2)ccc1-c1cnc(C)s1 [Compound 962] ... 1000 to 10000 nM
12) COc1cc(-c2ccc(-c3ccc(N(C)[C@@H]4C[C@H]5CC[C@@H](C4)N5)nn3)nc2OC)ncn1 [Compound 954] ... 1000 to 10000 nM
13) COc1nc(-c2ccc(NC3CCNCC3)nc2)ccc1-n1cccn1 [Compound 987] ... > 10000 nM
14) COc1nc(-c2ccc(N(C)[C@@H]3C[C@H]4CC[C@@H](C3)N4)nn2)ccc1-n1cccn1 [Compound 907] ... > 10000 nM
15) COc1nc(-c2ccc(N(C)C3CC(C)(C)NC(C)(C)C3)nn2)ccc1-c1cn[nH]c1 [Compound 919] ... 100 to 1000 nM
16) COc1nc(-c2ccc(N(C)[C@@H]3C[C@H]4CC[C@@H](C3)N4)nn2)ncc1-c1cn[nH]c1 [Compound 913] ... 1000 to 10000 nM
17) COc1cc(-c2ccc(N(C)[C@@H]3C[C@H]4CC[C@@H](C3)N4)nn2)ccc1-c1cn[nH]c1 [Compound 914] ... 100 to 1000 nM
